Test system: Mycobacterium avium
Experiment: Antimycobacterial activity against Mycobacterium avium CNCTC My 330/88 after 21 days by microdilution method
Type: functional
Conditions: CNCTC My 330/88, 504 h
Cut-off 60 µM on MIC99: below means Criterion met, at or above means Criterion not met.

These recorded examples may help you get a feel for the data.
SMILES DATA: Cc1ccc(-c2nnc(SCc3cc([N+](=O)[O-])cc(C(F)(F)F)c3)s2)cc1
ANSWER LABEL: Criterion not met

SMILES DATA: Cc1nnc(SCc2cc([N+](=O)[O-])cc([N+](=O)[O-])c2)s1
ANSWER LABEL: Criterion not met

SMILES DATA: O=[N+]([O-])c1cc(CSc2nnc(-c3ccccc3)s2)cc([N+](=O)[O-])c1
ANSWER LABEL: Criterion met

SMILES DATA: O=[N+]([O-])c1ccc(CSc2nnc(-c3ccc([N+](=O)[O-])cc3)o2)cc1
ANSWER LABEL: Criterion not met

Task: Just wondering, is MIC99 of O=[N+]([O-])c1ccc(-c2nnc(SCc3cc([N+](=O)[O-])cc(C(F)(F)F)c3)s2)cc1 below 60 µM?
Result: Criterion not met

Task: Cool, now O=[N+]([O-])c1cc(CSc2nnc(-c3cccc(Cl)c3)s2)cc([N+](=O)[O-])c1
Result: Criterion met

Task: Also, COc1ccc(-c2nnc(SCc3ccc([N+](=O)[O-])cc3[N+](=O)[O-])o2)cc1 please.
Result: Criterion met

Task: Please do the same for O=[N+]([O-])c1cc(CSc2nnc(-c3ccccc3Cl)o2)cc([N+](=O)[O-])c1 as well.
Result: Criterion met

Task: Please answer likewise for COc1cccc(-c2nnc(SCc3cc([N+](=O)[O-])cc([N+](=O)[O-])c3)o2)c1
Result: Criterion met

These entries and their values trace back to ChEMBL document CHEMBL3797190.
